This collection of values is drawn from paper PMC4336329.

Biological target: human ether-à-go-go-related gene (hERG) potassium channel (human);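 note: peak tail current of the secondary pulse compared with the same well before compound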
Sequence (Q12809 whole entry, looked up): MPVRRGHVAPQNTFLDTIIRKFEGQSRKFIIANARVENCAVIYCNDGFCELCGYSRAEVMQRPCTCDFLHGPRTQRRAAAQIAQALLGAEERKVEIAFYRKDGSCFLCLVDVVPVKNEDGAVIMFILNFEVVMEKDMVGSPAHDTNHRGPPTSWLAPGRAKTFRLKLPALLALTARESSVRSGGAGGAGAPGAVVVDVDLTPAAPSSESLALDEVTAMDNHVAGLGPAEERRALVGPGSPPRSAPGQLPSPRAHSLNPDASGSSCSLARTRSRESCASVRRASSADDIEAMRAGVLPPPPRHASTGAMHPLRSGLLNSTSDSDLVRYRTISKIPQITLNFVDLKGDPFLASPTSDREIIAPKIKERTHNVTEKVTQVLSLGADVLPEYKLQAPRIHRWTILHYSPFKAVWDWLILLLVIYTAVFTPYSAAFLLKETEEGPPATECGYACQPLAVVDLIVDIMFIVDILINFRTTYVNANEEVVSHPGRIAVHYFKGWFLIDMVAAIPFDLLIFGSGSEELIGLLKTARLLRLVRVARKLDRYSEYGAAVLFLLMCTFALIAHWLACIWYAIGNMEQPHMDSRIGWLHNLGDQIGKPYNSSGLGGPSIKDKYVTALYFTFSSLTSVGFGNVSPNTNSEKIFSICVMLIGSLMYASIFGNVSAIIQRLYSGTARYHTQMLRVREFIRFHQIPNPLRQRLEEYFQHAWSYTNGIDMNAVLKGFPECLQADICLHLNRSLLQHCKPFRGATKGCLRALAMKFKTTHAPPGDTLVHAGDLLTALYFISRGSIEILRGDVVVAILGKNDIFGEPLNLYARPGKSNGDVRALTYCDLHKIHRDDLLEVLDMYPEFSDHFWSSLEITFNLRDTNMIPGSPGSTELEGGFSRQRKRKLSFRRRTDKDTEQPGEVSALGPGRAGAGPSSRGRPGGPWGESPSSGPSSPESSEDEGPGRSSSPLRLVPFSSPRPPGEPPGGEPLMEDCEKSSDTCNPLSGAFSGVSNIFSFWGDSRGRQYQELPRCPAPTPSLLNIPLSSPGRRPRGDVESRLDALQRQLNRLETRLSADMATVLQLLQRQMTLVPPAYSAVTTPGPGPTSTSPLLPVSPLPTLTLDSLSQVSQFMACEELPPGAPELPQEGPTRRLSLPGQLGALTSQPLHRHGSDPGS
Test: primary screen, population patch clamp on CHO cells stably expressing hERG; higher = less effect of the substance
In all, about 310,000 compounds went through this assay and about 14,000 (4.5%) showed an effect of 50% or more. Effects have a minus sign here. The entries come from a sample that favours strong results as a whole.
experimental.readout: hERG current change (%, negative = inhibition) at 10uM (%)
Give bare numbers, in %.

[[record]]
compound = "Cc1ccc(-n2nnnc2SCC(=O)NCCC2=CCCCC2)c(C)c1"
measured_on = "human ether-à-go-go-related gene (hERG) potassium channel (human)"
endpoint_result = -13.1


Dear colleague, could you send me hERG current change (%, negative = inhibition) at 10uM for each of the items below? Thanks.
1. CCOC(=O)C1CCN(S(=O)(=O)c2ccc3[nH]c(=O)oc3c2)CC1
2. Cc1ccnc(OC(C(=O)O)C(OCCc2ccccc2)(c2ccccc2)c2ccccc2)n1 (stereo not shown)
3. CC(=O)NCCn1c(SCC(=O)c2ccc(Cl)cc2)nc2ccccc2c1=O
4. CN(C)CCCN(C(=O)c1cc2ccccc2oc1=O)c1nc2ccc(F)cc2s1.Cl
5. CC1=NOC(=O)/C1=C\c1ccc(-c2cccc(Cl)c2)o1
6. Cc1ccc([N+](=O)[O-])c(NC(=O)COC(=O)C2CC3CCCC(C2)C3=O)c1C (stereo not shown)

Response:
1. -30.9
2. 23.2
3. -4.33
4. -68.1
5. 10.4
6. 13.8

Dear colleague, could you send me hERG current change (%, negative = inhibition) at 10uM for each of the items below? Thanks.
1. COC(=O)CSc1nnc(COc2ccc([N+](=O)[O-])cc2)n1C
2. CN(C)S(=O)(=O)c1ccc(N2CCCC2)c(C(=O)N2CCN(S(=O)(=O)c3cccc(F)c3)CC2)c1
3. O[C@@H]1CCCN2CCc3c([nH]c4ccccc34)[C@H]12
4. Cc1cccc2sc(N(CCCN(C)C)C(=O)c3cc4ccccc4oc3=O)nc12.Cl
5. COCCn1c(SCc2cc(=O)n3cc(C)ccc3n2)nc2ccccc2c1=O

Response:
[-47.6, -10.7, 10.9, -54.6, 13.7]

Dear colleague, could you send me hERG current change (%, negative = inhibition) at 10uM for each of the items below? Thanks.
1. CC(C)OC(=O)CSc1nnc(COc2ccc([N+](=O)[O-])cc2)n1C
2. O=C(NC1CCCC1)C(c1cccnc1)N(C(=O)c1csnn1)C1CC1 (stereo not shown)
3. CCCCn1c(=O)c(C(=O)Nc2ccccc2S(N)(=O)=O)c(O)c2ccccc21
4. Cn1c(COc2ccc([N+](=O)[O-])cc2)nnc1SCC(N)=O
5. COc1ccc(NCc2nnc(SCC(=O)Nc3ccccc3)n2C)cc1

Response:
[-69.9, 4.97, -12.3, 1.54, -12.5]

Dear colleague, could you send me hERG current change (%, negative = inhibition) at 10uM for each of the items below? Thanks.
1. Cc1ccc2nc(N(CCCN(C)C)C(=O)c3cc4ccccc4oc3=O)sc2c1.Cl
2. Cc1ccc(-c2noc(CCC(=O)Nc3ccc4c(c3)OCO4)n2)cc1
3. Cc1cccc(NC(=O)CN(C)S(=O)(=O)c2ccc3c(c2)n(C)c(=O)c(=O)n3C)c1C
4. COc1ccc(CN2CCOCCOCCOCCOCCOCC2)cc1
5. COc1ccc(NC(=O)CSc2nnc(CNc3ccc(C)cc3)n2C)cc1
6. CN(C)CCCN(C(=O)c1cc2ccccc2oc1=O)c1nc2c(F)cccc2s1.Cl
7. O=C(CSc1ccccc1)NCC1(N2CCCCC2)CCCCC1
8. CC(=O)N1CCOc2ccc(S(=O)(=O)N3CCC(C)CC3)cc21

Response:
[-33.7, 3.68, -7.72, -20.7, 25.2, -41.1, -0.798, 6.53]

Dear colleague, could you send me hERG current change (%, negative = inhibition) at 10uM for each of the items below? Thanks.
1. Cc1ccc(-n2nnnc2SCC(=O)NCC2(N3CCCCC3)CCCCC2)c(C)c1
2. CCOC(=O)C1CCN(S(=O)(=O)c2ccc3oc(=O)ccc3c2)CC1
3. CCOC(=O)C1=C(N)Oc2cc(C)[nH]c(=O)c2C1c1ccncc1 (stereo not shown)
4. O=C(CSc1nnnn1-c1ccccc1)NCC1(N2CCCCC2)CCCCC1

Response:
1. -284
2. -77
3. 11.9
4. -62.3

Dear colleague, could you send me hERG current change (%, negative = inhibition) at 10uM for each of the items below? Thanks.
1. O=C(CCCn1c(SCc2cc(=O)n3cc(Cl)ccc3n2)nc2ccccc2c1=O)NCC1CCCO1 (stereo not shown)
2. CCCc1nnc(SCC(=O)O)n1/N=C/c1ccc2c(c1)OCO2

Response:
[-53.7, -7.5]
